Exercise: state measured IC50 for each of the compounds provided.
Target sequence: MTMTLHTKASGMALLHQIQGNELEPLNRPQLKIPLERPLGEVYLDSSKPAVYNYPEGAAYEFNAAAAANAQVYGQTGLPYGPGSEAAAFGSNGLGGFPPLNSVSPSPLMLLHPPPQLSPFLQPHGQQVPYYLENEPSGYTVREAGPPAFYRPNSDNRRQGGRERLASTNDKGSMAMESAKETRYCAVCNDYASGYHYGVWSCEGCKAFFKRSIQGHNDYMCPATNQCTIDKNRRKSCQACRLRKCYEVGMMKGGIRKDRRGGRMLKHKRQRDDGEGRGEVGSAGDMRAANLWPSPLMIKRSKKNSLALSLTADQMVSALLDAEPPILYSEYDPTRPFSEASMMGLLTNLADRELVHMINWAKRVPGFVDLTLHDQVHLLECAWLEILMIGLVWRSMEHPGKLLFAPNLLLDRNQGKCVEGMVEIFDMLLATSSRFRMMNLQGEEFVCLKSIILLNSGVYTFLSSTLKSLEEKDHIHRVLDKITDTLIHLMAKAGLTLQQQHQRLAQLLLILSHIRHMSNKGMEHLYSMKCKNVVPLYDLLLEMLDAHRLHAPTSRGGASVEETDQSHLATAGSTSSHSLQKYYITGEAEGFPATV
Report as a plain number; the unit nM is understood.

Q: Tell me measured IC50 for Oc1ccc2c(c1)CCN(c1ccccc1)C2c1ccc(OCCN2CCCC2)cc1 (stereo unspecified) please.
Ans: 10.7

Q: Tell me measured IC50 for CN(C)c1cccc(N2CCc3cc(O)ccc3C2(C)c2ccc(OCCN3CCCCC3)cc2)c1 (stereo unspecified) please.
Ans: 19.8

Q: Tell me measured IC50 for CC(C)c1cccc(N2CCc3cc(O)ccc3C2(C)c2ccc(OCCN3CCCCC3)cc2)c1 (stereo unspecified) please.
Ans: 16.1

Q: Tell me measured IC50 for CC1(c2ccc(OCCN3CCCC3)cc2)c2ccc(O)cc2CCN1c1ccc(Cl)cc1 (stereo unspecified) please.
Ans: 3.3

Q: Tell me measured IC50 for Cc1ccc(N2CCc3cc(O)ccc3C2(C)c2ccc(OCCN3CCCCC3)cc2)cc1 (stereo unspecified) please.
Ans: 2.9

Q: Tell me measured IC50 for CN(C)c1cccc(N2CCc3cc(O)ccc3C2(C)c2ccc(OCCN3CCCC3)cc2)c1 (stereo unspecified) please.
Ans: 19

###

# pIC50 per entry for Estrogen receptor beta (Homo sapiens, UniProt Q92731)
Reminder that pIC50 means the negative base-10 logarithm of the concentration expressed in mol/L.

Q: Tell me measured pIC50 for Cc1ccc(N2CCc3cc(O)ccc3C2(C)c2ccc(OCCN3CCCC3)cc2)cc1 (configuration not stated) please.
Ans: 6.45

Q: Tell me measured pIC50 for CC1(c2ccc(OCCN3CCCC3)cc2)c2ccc(O)cc2CCN1c1ccc(Cl)cc1 (configuration not stated) please.
Ans: 6.52

Q: Tell me measured pIC50 for CC(C)c1cccc(N2CCc3cc(O)ccc3C2(C)c2ccc(OCCN3CCCCC3)cc2)c1 (configuration not stated) please.
Ans: 5.96

Q: Tell me measured pIC50 for CC1(c2ccc(OCCN3CCCCC3)cc2)c2ccc(O)cc2CCN1c1cccc(Cl)c1 (configuration not stated) please.
Ans: 6.55

Q: Tell me measured pIC50 for CC1(c2ccc(OCCN3CCCC3)cc2)c2ccc(O)cc2CCN1c1ccc(F)cc1 (configuration not stated) please.
Ans: 6.69

Q: Tell me measured pIC50 for CC1(c2ccc(OCCN3CCCC3)cc2)c2ccc(O)cc2CCN1c1ccccc1 (configuration not stated) please.
Ans: 6.64

Q: Tell me measured pIC50 for CC1(c2ccc(OCCN3CCCCC3)cc2)c2ccc(O)cc2CCN1c1ccc(F)cc1 (configuration not stated) please.
Ans: 6.50

Q: Tell me measured pIC50 for CC1(c2ccc(OCCN3CCCCC3)cc2)c2ccc(O)cc2CCN1c1cccc(O)c1 (configuration not stated) please.
Ans: 6.52

Q: Tell me measured pIC50 for CC1(c2ccc(OCCN3CCCCCC3)cc2)c2ccc(O)cc2CCN1c1ccccc1 (configuration not stated) please.
Ans: 6.70

Q: Tell me measured pIC50 for CC1(c2ccc(OCCN3CCCCC3)cc2)c2ccc(O)cc2CCN1c1ccccc1 (configuration not stated) please.
Ans: 6.98

Q: Tell me measured pIC50 for CN(C)c1cccc(N2CCc3cc(O)ccc3C2(C)c2ccc(OCCN3CCCC3)cc2)c1 (configuration not stated) please.
Ans: 5.66

Q: Tell me measured pIC50 for Oc1ccc2c(c1)CCN(c1ccccc1)C2c1ccc(OCCN2CCCC2)cc1 (configuration not stated) please.
Ans: 6.78

Q: Tell me measured pIC50 for CC1(c2ccc(OCCN3CCCC3)cc2)c2ccc(O)cc2CCN1c1cccc(Cl)c1 (configuration not stated) please.
Ans: 6.57

Q: Tell me measured pIC50 for CN(C)c1cccc(N2CCc3cc(O)ccc3C2(C)c2ccc(OCCN3CCCCC3)cc2)c1 (configuration not stated) please.
Ans: 5.51

Q: Tell me measured pIC50 for Cc1ccc(N2CCc3cc(O)ccc3C2(C)c2ccc(OCCN3CCCCC3)cc2)cc1 (configuration not stated) please.
Ans: 6.38

Q: Tell me measured pIC50 for CC(C)c1ccc(N2CCc3cc(O)ccc3C2(C)c2ccc(OCCN3CCCCC3)cc2)cc1 (configuration not stated) please.
Ans: 5.43

Q: Tell me measured pIC50 for CC(C)c1ccc(N2CCc3cc(O)ccc3C2(C)c2ccc(OCCN3CCCC3)cc2)cc1 (configuration not stated) please.
Ans: 5.70

###

Exercise: state measured IC50 for each of the compounds provided.
Report as a plain number; the unit nM is understood.

Q: Print Estrogen receptor beta (Homo sapiens, UniProt Q92731) IC50 for CC1(c2ccc(OCCN3CCCC3)cc2)c2ccc(O)cc2CCN1c1cccc(Cl)c1 (stereo not given) .
Ans: 106

Q: Print Estrogen receptor beta (Homo sapiens, UniProt Q92731) IC50 for CC1(c2ccc(OCCN3CCCCC3)cc2)c2ccc(O)cc2CCN1c1ccccc1 (stereo not given) .
Ans: 83

Q: Print Estrogen receptor beta (Homo sapiens, UniProt Q92731) IC50 for CC1(c2ccc(OCCN3CCCCC3)cc2)c2ccc(O)cc2CCN1c1ccc(F)cc1 (stereo not given) .
Ans: 92

Q: Print Estrogen receptor beta (Homo sapiens, UniProt Q92731) IC50 for CC1(c2ccc(OCCN3CCCC3)cc2)c2ccc(O)cc2CCN1c1ccccc1 (stereo not given) .
Ans: 83

Q: Print Estrogen receptor beta (Homo sapiens, UniProt Q92731) IC50 for CC1(c2ccc(OCCN3CCCCC3)cc2)c2ccc(O)cc2CCN1c1cccc(Cl)c1 (stereo not given) .
Ans: 159

###

Exercise: state measured Agonism for each of the compounds provided.
System: MCF7
Report as a plain number; the unit % is understood.

Q: Tell me measured Agonism for CCC(=C(c1ccc(O)cc1)c1ccc(OCCN(C)C)cc1)c1ccccc1 please.
Ans: 31

Q: Tell me measured Agonism for CC1(c2ccc(OCCN3CCCC3)cc2)c2ccc(O)cc2CCN1c1cccc(Cl)c1 (stereo not drawn) please.
Ans: 20

Q: Tell me measured Agonism for Cc1ccc(N2CCc3cc(O)ccc3C2(C)c2ccc(OCCN3CCCCC3)cc2)cc1 (stereo not drawn) please.
Ans: 9

Q: Tell me measured Agonism for CC1(c2ccc(OCCN3CCCCC3)cc2)c2ccc(O)cc2CCN1c1cccc(Cl)c1 (stereo not drawn) please.
Ans: 18

Q: Tell me measured Agonism for CN(C)c1cccc(N2CCc3cc(O)ccc3C2(C)c2ccc(OCCN3CCCC3)cc2)c1 (stereo not drawn) please.
Ans: 19

Q: Tell me measured Agonism for CC(C)c1cccc(N2CCc3cc(O)ccc3C2(C)c2ccc(OCCN3CCCCC3)cc2)c1 (stereo not drawn) please.
Ans: 16

Q: Tell me measured Agonism for CC1(c2ccc(OCCN3CCCCCC3)cc2)c2ccc(O)cc2CCN1c1ccccc1 (stereo not drawn) please.
Ans: 13

Q: Tell me measured Agonism for CC1(c2ccc(OCCN3CCCC3)cc2)c2ccc(O)cc2CCN1c1ccc(Cl)cc1 (stereo not drawn) please.
Ans: 10

###

Exercise: state measured IC50 for each of the compounds provided.
Test system: MCF7
Assay: cells
Conditions: Homo sapiens
Report as a plain number; the unit nM is understood.

Q: Tell me measured IC50 for CC1(c2ccc(OCCN3CCCCC3)cc2)c2ccc(O)cc2CCN1c1ccccc1 (centres undefined) please.
Ans: 4

Q: Tell me measured IC50 for Cc1ccc(N2CCc3cc(O)ccc3C2(C)c2ccc(OCCN3CCCC3)cc2)cc1 (centres undefined) please.
Ans: 4.1

Q: Tell me measured IC50 for Cc1ccc(N2CCc3cc(O)ccc3C2(C)c2ccc(OCCN3CCCCC3)cc2)cc1 (centres undefined) please.
Ans: 4

Q: Tell me measured IC50 for CC1(c2ccc(OCCN3CCCC3)cc2)c2ccc(O)cc2CCN1c1ccc(Cl)cc1 (centres undefined) please.
Ans: 6.2

Q: Tell me measured IC50 for CC(C)c1cccc(N2CCc3cc(O)ccc3C2(C)c2ccc(OCCN3CCCCC3)cc2)c1 (centres undefined) please.
Ans: 27

Q: Tell me measured IC50 for CC1(c2ccc(OCCN3CCCC3)cc2)c2ccc(O)cc2CCN1c1cccc(O)c1 (centres undefined) please.
Ans: 2

Q: Tell me measured IC50 for CC1(c2ccc(OCCN3CCCCC3)cc2)c2ccc(O)cc2CCN1c1ccc(Cl)cc1 (centres undefined) please.
Ans: 5.2

Q: Tell me measured IC50 for CC1(c2ccc(OCCN3CCCC3)cc2)c2ccc(O)cc2CCN1c1ccc(F)cc1 (centres undefined) please.
Ans: 3.5

Q: Tell me measured IC50 for Oc1ccc2c(c1)CCN(c1ccccc1)C2c1ccc(OCCN2CCCC2)cc1 (centres undefined) please.
Ans: 29

Q: Tell me measured IC50 for CN(C)c1cccc(N2CCc3cc(O)ccc3C2(C)c2ccc(OCCN3CCCCC3)cc2)c1 (centres undefined) please.
Ans: 36

Q: Tell me measured IC50 for CC(C)c1ccc(N2CCc3cc(O)ccc3C2(C)c2ccc(OCCN3CCCC3)cc2)cc1 (centres undefined) please.
Ans: 3.2

Q: Tell me measured IC50 for CC1(c2ccc(OCCN3CCCC3)cc2)c2ccc(O)cc2CCN1c1cccc(Cl)c1 (centres undefined) please.
Ans: 7

Q: Tell me measured IC50 for CC1(c2ccc(OCCN3CCCCCC3)cc2)c2ccc(O)cc2CCN1c1ccccc1 (centres undefined) please.
Ans: 6

Q: Tell me measured IC50 for CC1(c2ccc(OCCN3CCCCC3)cc2)c2ccc(O)cc2CCN1c1cccc(Cl)c1 (centres undefined) please.
Ans: 8
